- TARGET_OR_TEST_SYSTEM: FLT3 (Homo sapiens, UniProt P36888)
- Construct: FLT3(DKIN); made in house
- Sequence (P36888 610-943 limits assumed): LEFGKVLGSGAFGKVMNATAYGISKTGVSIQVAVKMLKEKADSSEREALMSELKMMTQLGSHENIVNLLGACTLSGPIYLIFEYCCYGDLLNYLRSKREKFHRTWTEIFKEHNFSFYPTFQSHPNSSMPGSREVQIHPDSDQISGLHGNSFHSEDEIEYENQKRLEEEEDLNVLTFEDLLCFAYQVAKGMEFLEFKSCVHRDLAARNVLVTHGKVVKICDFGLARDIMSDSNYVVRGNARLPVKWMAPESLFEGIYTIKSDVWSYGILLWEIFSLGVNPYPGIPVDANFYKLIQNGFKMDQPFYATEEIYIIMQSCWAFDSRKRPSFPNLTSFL
- PROTOCOL: Binding constant (Kd) measurement, phage-displayed kinase competition binding assay
- EXPERIMENTAL_CONDITIONS: FLT3(DKIN) construct
MEASURE_NAME: Binding Assay: FLT3(DKIN)

1. COc1ccc(NC(=O)Nc2cc(C(C)(C)C)no2)cc1 [Compound A30] :: + + + +
2. CC(C)(C)c1cc(NC(=O)Nc2ccc(OCCN3CCOCC3)c3ccccc23)no1 [Compound K1] :: + + +
3. CC(=O)c1ccc(NC(=O)Nc2cc(C(C)(C)C)on2)cc1 [Compound A20] :: + + +
4. COc1cc2nc(Cl)nc(Nc3ccc(NC(=O)Nc4cc(C(C)(C)C)on4)cc3)c2cc1OC [Compound O1] :: + + + +
5. CC(C)(C)c1cc(NC(=O)Nc2ccc(Nc3nc(Cl)nc4[nH]cnc34)cc2)no1 [Compound O4] :: + + + +
6. CC(C)(C)c1cc(NC(=O)Nc2ccc(OCc3cccc(Cl)c3)cc2)no1 [Compound G11] :: + + + +
7. Cn1nc(C(F)(F)F)c(C(=O)Nc2ccc(NC(=O)Nc3cc(C(C)(C)C)on3)cc2)c1Cl [Compound N68] :: + + + +
8. COc1ccc(NC(=O)Nc2cc(C(C)(C)C)nn2-c2ccc(C)cc2)cc1 [Compound H15] :: + + + +
9. CC(C)(C)c1cc(NC(=O)Nc2ccc(Nc3ncnc4[nH]cnc34)cc2)no1 [Compound O3] :: + + + +
10. Cc1noc(-c2ccc(NC(=O)Nc3cc(C(C)(C)C)on3)cc2)n1 [Compound P9] :: + + + +
11. Cc1nc(-c2ccc(C(=O)Nc3ccc(NC(=O)Nc4cc(C(C)(C)C)on4)cc3)s2)cs1 [Compound N173] :: + + + +
12. CC(C)(C)c1cc(NC(=O)Nc2ccc3cc4ccccc4cc3c2)no1 [Compound A18] :: + + +
13. CC(C)(C)c1cc(NC(=O)Nc2ccc(NC(=O)c3c[nH]c(=O)nc3-c3ccncc3)cc2)no1 [Compound N19] :: + +
14. CC(C)(C)c1cc(NC(=O)Nc2ccc(NC(=O)c3cc4cc(Br)ccc4s3)cc2)no1 [Compound N17] :: + + + +
15. Cc1ccc(-n2nc(C(C)(C)C)cc2NC(=O)Nc2ccc(Cl)cc2)cc1 [Compound H14] :: + + + +
16. CC(C)(C)c1cc(NC(=O)Nc2ccc(NC(=O)Cc3ccc(OCc4ccccc4)cc3)cc2)no1 [Compound N98] :: + + +
17. Cc1nccn1CCOc1ccc(NC(=O)Nc2cc(C(C)(C)C)on2)cc1 [Compound G51] :: + + + +
